Activity for assorted compounds
System: Rattus norvegicus
protocol.summary: Stimulation of prostate weight in castrated immature Sprague-Dawley rat at 2 mg/day, po after 5 days
Assay type: functional, Prostate gland
The answer is to be given in %; state only the numeric part.

CC1(C(=O)Nc2ccc([N+](=O)[O-])c(C(F)(F)F)c2)CC(c2ccc(NC(=O)C(F)(F)F)cc2)=NN1 (stereo not given) : 10

Now turn to the next compound.
Quick one: Activity for CC1(C(=O)Nc2ccc([N+](=O)[O-])c(C(F)(F)F)c2)CC(C(F)(F)F)=NN1 (stereo not given) ?
38

* * *

Test system: Rattus norvegicus
protocol.summary: Stimulation of prostate weight in castrated Sprague-Dawley rat at 30 mg/kg
Type: functional, Prostate gland
Please mark TRUE if the recorded Activity is equal to or greater than 20%, and FALSE if it falls below.

Record excerpt, results attached:
C[C@]1(C(=O)Nc2ccc(C#N)c(C(F)(F)F)c2)CC(C(F)(F)F)=NN1 : FALSE
CCC1(C(=O)Nc2ccc(C#N)c(C(F)(F)F)c2)CC(C(F)(F)F)=NN1 (stereo not given) : FALSE
CC1(C(=O)Nc2ccc(C#N)c(C(F)(F)F)c2)CC(C(F)(F)F)=NN1 (stereo not given) : TRUE
C[C@@]1(C(=O)Nc2ccc(C#N)c(C(F)(F)F)c2)CC(C(F)(F)F)=NN1 : TRUE

Let us examine a further case.
Test whether the molecule CCc1c(NC(=O)C2(C)CC(C(F)(F)F)=NN2)ccc(C#N)c1C(F)(F)F (stereo not given) records Activity of 20% or higher.
FALSE

* * *

Tested on: Rattus norvegicus
protocol.summary: Stimulation of prostate weight in castrated immature Sprague-Dawley rat at 2 mg/day, po after 5 days
Format: functional, Prostate gland
The following compounds are shown together with reported Activity values.

CCSc1cc(C#N)c(C(F)(F)F)cc1NC(=O)C1(C)CC(C(F)(F)F)=NN1 (stereo not drawn) : <10%

What measured Activity goes with CC1(C(=O)Nc2ccc(C#N)c(C(F)(F)F)c2)CC(C(F)(F)C(F)(F)F)=NN1 (stereo not drawn) ?
<10%

Proceed to CCc1cc(C#N)c(C(F)(F)F)cc1NC(=O)C1(C)CC(C(F)(F)F)=NN1 (stereo not drawn)
<10%
